System: KRAS-mutant PDC tumor spheroid with HUVEC/MSC, viability;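 also: spheroids exposed to agents for seven days before reading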
Assay: Anticancer human tumor 327498-153-R-J2-PDC patient-derived uterine carcinosarcoma cell line growth inhibition [KRAS2]; active = viability on the fitted dose curve at most 10% of control; inactive = the rest
Conditions: second compound 10 µM; first compound 0.1 µM
Outcomes you can answer with include only these: active, inactive

A selection of reference data follows.
molecule | qualitativeLabel
CC1OCC2(CCN(c3cnc(Sc4ccnc(N)c4Cl)c(N)n3)CC2)C1N (centres undefined) + COc1cc2nc(C)nc(NC(C)c3cc(N)cc(C(F)(F)F)c3)c2cc1OC1CCOC1 | inactive
CC1(C)CCC(CN2CCN(c3ccc(C(=O)NS(=O)(=O)c4ccc(NCC5CCOCC5)c([N+](=O)[O-])c4)c(Oc4cnc5[nH]ccc5c4)c3)CC2)=C(c2ccc(Cl)cc2)C1 + C=CC(=O)N1CCN(c2nc(=O)n(-c3c(C)ccnc3C(C)C)c3nc(-c4c(O)cccc4F)c(F)cc23)C(C)C1 | inactive
O=C(c1cc(Cc2n[nH]c(=O)c3ccccc23)ccc1F)N1CCN(C(=O)C2CC2)CC1 + CNCc1ccccc1-c1csc(C(C)Nc2nc(C)nc3cc(OC)c(OC)cc23)c1 | active

GET /call?item= CC1COCCN1c1cc(-c2ccnn2C)c2ccnc(-c3ccn[nH]3)c2n1 (centres undefined) + C=CC(=O)N1CCN(c2nc(=O)n(-c3c(C)ccnc3C(C)C)c3nc(-c4c(O)cccc4F)c(F)cc23)C(C)C1 returns the recorded outcome of this test.
inactive
